Hello, the source for this data is patent US20130072519A1, in case you need it.

# Test system: Apolipoprotein B Secretion from HepG2 Cells
# PROTOCOL SUMMARY: Inhibition of Apolipoprotein B secretion from HepG2 cells (ELISA)
# Type: cell-based, human
# CONDITION LABEL: Homo sapiens, HepG2, HepG2 cells, 22-24 hours incubation, ApoB ELISA; Low/High IC50 columns give the 95% confidence interval
pIC50: −log10 of the molar value.
PARAMETER: pIC50

Worked examples follow.
CCOC(=O)[C@]1(COC(=O)Cc2ccc(NC(=O)c3ccc(OC)cc3-c3ccc(C(C)(C)C)cc3)c(C(=O)N(C)C)c2)c2ccccc2C(=O)N1C [Example 69]
9.74
CCOC(=O)C1(COC(=O)Cc2ccc(NC(=O)c3cccc(C)c3-c3ccc(C(F)(F)F)cc3)c(C(=O)N(C)C)c2)c2ccccc2C(=O)N1C (centres unmarked) [Example 7]
7.81
CCOC(=O)C1(COC(=O)Cc2ccc(NC(=O)c3ccccc3-c3ccc(C(F)(F)F)cc3)c(C(=O)N(C)C)c2)c2ccccc2C(=O)N1C (centres unmarked) [Example 13]
8.14

A = CCN1C(=O)c2ccccc2C1(COC(=O)Cc1ccc(NC(=O)c2cccc(C)c2-c2ccc(C(F)(F)F)cc2)c(C(=O)N(C)C)c1)C(=O)OC (racemic) [Example 65]
B = CCOC(=O)[C@]1(COC(=O)Cc2ccc(NC(=O)c3ccccc3-c3ccc(C(C)(C)C)cc3)c(C(=O)N(C)C)c2)c2ccccc2C(=O)N1C [Example 66]
Could you kindly indicate whether A or B has the higher pIC50 value? Pick one and reply with its label.
B
